# experimental system: Menin/MLL (terbium chelate-labeled menin, FITC-MBM1 peptide) (Homo sapiens, UniProt O00255, T541A)
# Construct: Menin (a.a. 1-610-6×his tag) was labeled with terbium cryptate as follows
# Sequence (O00255 with tags, fused parts or gaps T541A): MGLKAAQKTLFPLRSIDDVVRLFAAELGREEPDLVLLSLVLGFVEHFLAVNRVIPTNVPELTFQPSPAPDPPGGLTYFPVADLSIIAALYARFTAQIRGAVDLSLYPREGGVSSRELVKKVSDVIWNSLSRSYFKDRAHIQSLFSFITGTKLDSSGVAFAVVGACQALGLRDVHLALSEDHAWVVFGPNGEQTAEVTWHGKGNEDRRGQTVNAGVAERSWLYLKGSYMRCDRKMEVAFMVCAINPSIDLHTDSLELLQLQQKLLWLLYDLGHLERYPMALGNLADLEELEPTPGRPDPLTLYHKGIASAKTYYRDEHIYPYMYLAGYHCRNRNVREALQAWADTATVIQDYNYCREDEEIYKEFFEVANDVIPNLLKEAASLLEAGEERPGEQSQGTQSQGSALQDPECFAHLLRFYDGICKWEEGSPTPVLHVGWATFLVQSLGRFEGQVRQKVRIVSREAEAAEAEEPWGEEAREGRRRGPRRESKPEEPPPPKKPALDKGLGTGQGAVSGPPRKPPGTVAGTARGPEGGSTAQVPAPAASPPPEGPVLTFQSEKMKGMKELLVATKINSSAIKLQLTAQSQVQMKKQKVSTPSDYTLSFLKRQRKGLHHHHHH
# measurement description: Menin/MLL homogenous time-resolved fluorescence (HTRF) assay
# Type: binding
# condition label: averaged values over all measurements; read-out: Menin HTRF assay (IC50)
# Procedure: 3) Menin/MLL Homogenous Time-Resolved Fluorescence (HTRF) Assay […] Compound potencies were determined by first calculating % inhibition at each compound concentration according to equation 1: % inhibition=((HC−LC)−(HTRF^compound−LC))/(HC−LC))*100 (Eqn 1) […]
pIC50: −log10 of the molar value.
Reported pIC50 values are given for each entry in this list.

# molecule, pIC50
measured = [
    ("COc1ncccc1CN1CC[C@@H]2CN(c3ncnc4sc(CC(F)(F)F)cc34)C[C@@H]2C1 (single isomer, unassigned)", 7.06),
    ("CC(C)CN1CC[C@@H]2CN(c3ncnc4sc(CC(F)(F)F)cc34)C[C@@H]2C1 (single isomer, unassigned)", 7.82),
    ("O=C([C@@H]1CCCN1)N1CC[C@@H]2CN(c3ncnc4sc(CC(F)(F)F)cc34)C[C@@H]2C1", 6.03),
    ("FC(F)(F)Cc1cc2c(N3CC[C@@H]4[C@@H](CCN4Cc4ccc[nH]4)C3)ncnc2s1 (single isomer, unassigned)", 6.99),
    ("C[C@@H](c1cnn(C)c1)N1CC[C@@H]2CN(c3ncnc4sc(CC(F)(F)F)cc34)C[C@@H]2C1 (single isomer, unassigned) [Compound 79B]", 6.02),
    ("CC(C)CN1CC[C@H]2CN(c3ncnc4sc(CC(F)(F)F)cc34)C[C@H]2C1 (single isomer, unassigned)", 7.24),
]
